- Tested on: model oligoribonucleotide (ORN) with 27 bases
- assay_comment: Functionalisation of a model ORN with 27 bases: functionalisation rate and regiospecificity by HPLC/LC-MS after nuclease P1/alkaline phosphatase hydrolysis
- Type: biochemical
- test_parameters: ORN 8 nmol, compound 30 mM, 1 h at 65° C., 250 mM TEAAc pH 7, 25% DMSO
Entries and their measured Fr (corrected functionalisation rate) follow.
experimental_readout: Fr (corrected functionalisation rate)

compound | experimental_readout | reported_value
Cn1c(=O)oc(=O)c2cc(NC(=O)CCOCCOCCOCCOCCNC(=O)CCCCC3SCC4NC(=O)NC43)ccc21 (stereo not drawn) | Fr (corrected functionalisation rate) | 4%
O=C(CCCCC1SCC2NC(=O)NC21)NCCOCCOCCNC(=O)Cn1c(=O)oc(=O)c2ccccc21 (stereo not drawn) | Fr (corrected functionalisation rate) | 3.4%
O=C(CCCCC1SCC2NC(=O)NC21)NCCOCCOCCOCCOCCC(=O)NCCSSCCC(=O)Nc1ccc2[nH]c(=O)oc(=O)c2c1 (stereo not drawn) | Fr (corrected functionalisation rate) | 3.1%
O=C(CCCCC1SCC2NC(=O)NC21)Nc1ccc2[nH]c(=O)oc(=O)c2c1 (stereo not drawn) [5Biot IA 5, 5-biotin-isatoic anhydride] | Fr (corrected functionalisation rate) | 1.2%
CCN1/C(=C\C=C\C2=[N+](CCCCCC(=O)Nc3ccc4[nH]c(=O)oc(=O)c4c3)c3ccc(S(=O)(=O)[O-])cc3C2(C)C)C(C)(C)c2cc(S(=O)(=O)O)ccc21 [Cy3 IA 7, 5-Cy3 isatoic anhydride] | Fr (corrected functionalisation rate) | 2.6%
Cn1c(=O)oc(=O)c2cc(NC(=O)CCCCC3SCC4NC(=O)NC43)ccc21 (stereo not drawn) [5Biot IA Me 9, 1-Methyl-5 biotin-isatoic anhydride] | Fr (corrected functionalisation rate) | 2.6%
